Biological target: human cloned dopamine D4.2-receptors (Homo sapiens, UniProt P21917, DEL265-296)
Sequence (P21917 with tags, fused parts or gaps DEL265-296): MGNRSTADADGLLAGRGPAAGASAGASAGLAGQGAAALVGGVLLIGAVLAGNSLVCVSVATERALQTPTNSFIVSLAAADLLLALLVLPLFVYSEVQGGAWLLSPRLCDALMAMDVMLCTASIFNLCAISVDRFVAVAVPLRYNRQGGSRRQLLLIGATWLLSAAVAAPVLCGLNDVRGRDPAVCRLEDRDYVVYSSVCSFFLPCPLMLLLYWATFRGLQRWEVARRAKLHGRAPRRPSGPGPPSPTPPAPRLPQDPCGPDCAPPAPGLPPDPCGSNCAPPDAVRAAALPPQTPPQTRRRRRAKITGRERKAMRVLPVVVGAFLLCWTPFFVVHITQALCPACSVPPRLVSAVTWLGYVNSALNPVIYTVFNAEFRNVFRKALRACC
Experiment: Inhibition of the binding of 3H-YM-09151-2 to human dopamine D4 receptors
Conditions: [3H]YM-09151-2 0.06 nM; membranes of CHO-cells expressing human D4.2
pIC50: −log10 of the molar value.
Threshold rule: pIC50 greater than or equal to 8 is fulfilled; below that, not fulfilled.

N#Cc1cc(Br)c(OCCCN2CCN(c3cccc4[nH]ccc34)CC2)c(Br)c1 [Compound 4o]    not fulfilled
Fc1ccc(OCCCN2CCN(c3cccc4[nH]ccc34)CC2)c(Cl)c1 [Compound 4e]    fulfilled
Fc1cc(Br)c(OCCCCN2CCN(c3cccc4[nH]ccc34)CC2)c(Br)c1 [Compound 4k]    not fulfilled
Fc1ccc(OCCCCN2CCN(c3cccc4[nH]ccc34)CC2)c(Br)c1 [Compound 4b]    fulfilled
Fc1ccc(OCCCN2CCN(c3cccc4[nH]ccc34)CC2)c(F)c1 [Compound 4c]    fulfilled
Fc1ccc(SCCCN2CCN(c3cccc4[nH]ccc34)CC2)c(Cl)c1 [Compound 4a]    fulfilled

## Task Could you please find out whether Fc1cc(Cl)c(OCCCCN2CCN(c3cccc4[nH]ccc34)CC2)c(Cl)c1 [Compound 4g] has pIC50 that meets 8 or exceeds it?
## Result fulfilled

====

What IC50 was measured for each of the following?
biological target: human cloned dopamine D4.2-receptors (Homo sapiens, UniProt P21917, DEL265-296); assay: Inhibition of the binding of 3H-YM-09151-2 to human dopamine D4 receptors; conditions: [3H]YM-09151-2 0.06 nM; membranes of CHO-cells expressing human D4.2
One number for each entry, in nM.

These solved cases illustrate the format of a correct answer.
CCC(=O)c1cc(F)c(OCCCN2CCN(c3cccc4[nH]ccc34)CC2)c(F)c1    230
Clc1cccc(SCCN2CCN(c3cccc4[nH]ccc34)CC2)c1Cl    4.1

Below are some molecules; for each one, tell me its IC50.
1. Clc1ccccc1SCCCN1CCN(c2cccc3[nH]ccc23)CC1
2. Clc1cccc(Cl)c1SCCCCN1CCN(c2cccc3[nH]ccc23)CC1
3. Brc1ccccc1SCCCN1CCN(c2cccc3[nH]ccc23)CC1

## Result
[1.1, 1.8, 1.2]

====

target: human cloned dopamine D4.2-receptors (Homo sapiens, UniProt P21917, DEL265-296); experiment: Inhibition of the binding of 3H-YM-09151-2 to human dopamine D4 receptors; settings: [3H]YM-09151-2 0.06 nM; membranes of CHO-cells expressing human D4.2
pIC50: −log10 of the molar value.
Threshold rule: pIC50 greater than or equal to 8 is met; below that, not met.

Example results:
Fc1cc(F)c(OCCCN2CCN(c3cccc4[nH]ccc34)CC2)c(Br)c1 [Compound 4h]    met
Fc1cc(Br)cc(F)c1OCCCCN1CCN(c2cccc3[nH]ccc23)CC1 [Compound 4j]    not met
Cc1cccc(Cl)c1SCCCCN1CCN(c2cccc3[nH]ccc23)CC1 [Compound 2e]    met

## Task Could you please find out whether Fc1ccc(OCCCCN2CCN(c3cccc4[nH]ccc34)CC2)c(Br)c1 [Compound 2d] has pIC50 that meets 8 or exceeds it?
## Result met

## Task Could you please find out whether Brc1cc(Br)c(OCCCN2CCN(c3cccc4[nH]ccc34)CC2)c(Br)c1 [Compound 4l] has pIC50 that meets 8 or exceeds it?
## Result not met
